FYI, the data here is from ChEMBL document CHEMBL4368907.

# tested_system: Cholecystokinin receptor type A (Homo sapiens)
# assay: Displacement of [125I]-CCK-8 from human CCK1R expressed in human 1321N1 cell membranes after 2 hrs by SPA assay
Numbered stars: 1 amine (or outer) side, 2 acyl side, 3 side chain; on linkers, the order of the positions; unused ones are H or OH. Square brackets hold non-standard residues; d marks the D form. Peptide text beside a SMILES is read from it. * marks the point of attachment. sY = N[C@@H](Cc1ccc(OS(=O)(=O)O)cc1)C(=O)O; C18 diacid = O=C(O)CCCCCCCCCCCCCCCCC(=O)*; NMe1Nal = CN[C@@H](Cc1cccc2ccccc12)C(=O)O; γGlu = O=C(O)[C@H](CCC(=O)[*:2])N[*:1]; 1Nal = N[C@@H](Cc1cccc2ccccc12)C(=O)O; NMeD = CN[C@@H](CC(=O)O)C(=O)O; Nle = CCCC[C@H](N)C(=O)O; AEEA = NCCOCCOCC(=O)O
measured_property: IC50 (nM)
Numbers only, in nM.

CCCC[C@H](NC(=O)[C@H](Cc1c[nH]c2ccccc12)NC(=O)CNC(=O)[C@H](CC(C)C)NC(=O)[C@H](Cc1ccc(OS(=O)(=O)O)cc1)NC(=O)[C@H](CC(=O)O)NC(=O)COCCOCCNC(=O)COCCOCCNC(=O)CC[C@H](NC(=O)CCCCCCCCCCCCCCCCC(=O)O)C(=O)O)C(=O)N(C)[C@@H](CC(=O)O)C(=O)N(C)[C@@H](Cc1cccc2ccccc12)C(N)=O ({C18 diacid-γGlu-AEEA-AEEA}-D[sY]LGW[Nle][NMeD][NMe1Nal]-NH2): 0.115
CCCC[C@H](NC(=O)[C@H](Cc1ccc(OS(=O)(=O)O)cc1)NC(=O)[C@H](CC(=O)O)NC(=O)COCCOCCNC(=O)COCCOCCNC(=O)CC[C@H](NC(=O)CCCCCCCCCCCCCCCCC(=O)O)C(=O)O)C(=O)NCC(=O)N[C@@H](Cc1c[nH]c2ccccc12)C(=O)N[C@@H](CCCC)C(=O)N(C)[C@@H](CC(=O)O)C(=O)N[C@@H](Cc1cccc2ccccc12)C(N)=O ({C18 diacid-γGlu-AEEA-AEEA}-D[sY][Nle]GW[Nle][NMeD][1Nal]-NH2): 0.0794

Would you kindly look at the next entry?
Qu. Return the recorded IC50 value; entry: CCCC[C@H](NC(=O)[C@H](Cc1ccc(OS(=O)(=O)O)cc1)NC(=O)[C@H](CC(=O)O)NC(=O)COCCOCCNC(=O)COCCOCCNC(=O)CC[C@H](NC(=O)CCCCCCCCCCCCCCCCC(=O)O)C(=O)O)C(=O)NCC(=O)N[C@@H](Cc1c[nH]c2ccccc12)C(=O)N[C@@H](CCCC)C(=O)N[C@@H](CC(N)=O)C(=O)N[C@@H](Cc1ccccc1)C(N)=O ({C18 diacid-γGlu-AEEA-AEEA}-D[sY][Nle]GW[Nle]NF-NH2)
Ans. 19.1

* * *

# assay: Toxicity in lean Landrace Yorkshire Duroc pig at 30 nmol/kg, sc measured up to 96 hrs post dose
# Type: organism-based, Sus scrofa
# test_parameters: in vivo
Numbered stars: 1 amine (or outer) side, 2 acyl side, 3 side chain; on linkers, the order of the positions; unused ones are H or OH. Square brackets hold non-standard residues; d marks the D form. Side chains are listed from the residue outwards. Peptide text beside a SMILES is read from it. * marks the point of attachment. Phe(4-CH2SO3H) = N[C@@H](Cc1ccc(CS(=O)(=O)O)cc1)C(=O)O; C18 diacid = O=C(O)CCCCCCCCCCCCCCCCC(=O)*; γGlu = O=C(O)[C@H](CCC(=O)[*:2])N[*:1]; NMeF = CN[C@@H](Cc1ccccc1)C(=O)O; NMeD = CN[C@@H](CC(=O)O)C(=O)O; dNMeD = CN[C@H](CC(=O)O)C(=O)O; Nle = CCCC[C@H](N)C(=O)O; X1 = O=C(Cc1ccc(O)cc1)*; AEEA = NCCOCCOCC(=O)O
measured_property: Activity

CCCC[C@H](NC(=O)[C@H](Cc1c[nH]c2ccccc12)NC(=O)CNC(=O)[C@H](CCCCNC(=O)COCCOCCNC(=O)COCCOCCNC(=O)CC[C@H](NC(=O)CCCCCCCCCCCCCCCCC(=O)O)C(=O)O)NC(=O)Cc1ccc(O)cc1)C(=O)N(C)[C@@H](CC(=O)O)C(=O)N(C)[C@@H](Cc1ccccc1)C(N)=O (X1-K([AEEA-AEEA-γGlu-C18 diacid])GW[Nle][NMeD][NMeF]-NH2): Non-Toxic
CCCC[C@H](NC(=O)[C@H](Cc1ccc(CS(=O)(=O)O)cc1)NC(=O)[C@H](CC(=O)O)NC(=O)COCCOCCNC(=O)COCCOCCNC(=O)CC[C@H](NC(=O)CCCCCCCCCCCCCCCCC(=O)O)C(=O)O)C(=O)NCC(=O)N[C@@H](Cc1c[nH]c2ccccc12)C(=O)N[C@@H](CCCC)C(=O)N(C)[C@@H](CC(=O)O)C(=O)N(C)[C@@H](Cc1ccccc1)C(N)=O ({C18 diacid-γGlu-AEEA-AEEA}-D[Phe(4-CH2SO3H)][Nle]GW[Nle][NMeD][NMeF]-NH2): Non-Toxic
CCCC[C@H](NC(=O)[C@H](Cc1ccc(CS(=O)(=O)O)cc1)NC(=O)[C@H](CC(=O)O)NC(=O)COCCOCCNC(=O)[C@H](CCCCN)NC(=O)COCCOCCNC(=O)COCCOCCNC(=O)CC[C@H](NC(=O)CCCCCCCCCCCCCCCCC(=O)O)C(=O)O)C(=O)NCC(=O)N[C@@H](Cc1c[nH]c2ccccc12)C(=O)N[C@@H](CCCC)C(=O)N(C)[C@H](CC(=O)O)C(=O)N(C)[C@@H](Cc1ccccc1)C(N)=O ({C18 diacid-γGlu-AEEA-AEEA}-K[AEEA]D[Phe(4-CH2SO3H)][Nle]GW[Nle][dNMeD][NMeF]-NH2): Non-Toxic

* * *

Please provide measured IC50 for the entries that follow.
# tested_system: Cholecystokinin receptor type A (Homo sapiens, UniProt P32238)
# Sequence (P32238 whole entry): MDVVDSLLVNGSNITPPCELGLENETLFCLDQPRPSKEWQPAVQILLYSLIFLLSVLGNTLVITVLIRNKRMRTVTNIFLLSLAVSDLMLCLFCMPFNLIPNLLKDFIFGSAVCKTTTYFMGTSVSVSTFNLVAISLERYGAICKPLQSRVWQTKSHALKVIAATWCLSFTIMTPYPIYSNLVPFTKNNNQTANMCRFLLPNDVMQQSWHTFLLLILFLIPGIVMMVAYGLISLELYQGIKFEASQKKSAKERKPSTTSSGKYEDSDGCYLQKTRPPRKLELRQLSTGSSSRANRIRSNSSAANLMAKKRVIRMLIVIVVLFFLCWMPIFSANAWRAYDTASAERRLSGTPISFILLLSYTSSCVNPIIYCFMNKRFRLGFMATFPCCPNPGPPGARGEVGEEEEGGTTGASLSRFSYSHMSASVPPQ
# assay: Displacement of [125I]-CCK-8 from human CCK1R expressed in human 1321N1 cell membranes after 2 hrs by SPA assay
Numbered stars: 1 amine (or outer) side, 2 acyl side, 3 side chain; on linkers, the order of the positions; unused ones are H or OH. Square brackets hold non-standard residues; d marks the D form. Side chains are listed from the residue outwards. Peptide text beside a SMILES is read from it. * marks the point of attachment. sY = N[C@@H](Cc1ccc(OS(=O)(=O)O)cc1)C(=O)O; C18 diacid = O=C(O)CCCCCCCCCCCCCCCCC(=O)*; γGlu = O=C(O)[C@H](CCC(=O)[*:2])N[*:1]; NMeF = CN[C@@H](Cc1ccccc1)C(=O)O; NMeD = CN[C@@H](CC(=O)O)C(=O)O; dNMeD = CN[C@H](CC(=O)O)C(=O)O; NH(2-Me-phenyl) = Cc1ccccc1N*; Nle = CCCC[C@H](N)C(=O)O; AEEA = NCCOCCOCC(=O)O; CO = O=C([*:1])[*:2]; βAla = NCCC(=O)O
Numeric answer plus unit only.

Completed entries (count: 2):
CCCC[C@H](NC(=O)[C@H](Cc1c[nH]c2ccccc12)NC(=O)CCNC(=O)[C@H](CC(C)C)NC(=O)[C@H](Cc1ccc(OS(=O)(=O)O)cc1)NC(=O)[C@H](CC(=O)O)NC(=O)COCCOCCNC(=O)COCCOCCNC(=O)CC[C@H](NC(=O)CCCCCCCCCCCCCCCCC(=O)O)C(=O)O)C(=O)N[C@@H](CC(=O)O)C(=O)N[C@@H](Cc1ccccc1)C(N)=O ({C18 diacid-γGlu-AEEA-AEEA}-D[sY]L[βAla]W[Nle]DF-NH2): 219 nM
CCCC[C@H](NC(=O)[C@H](Cc1ccc(OS(=O)(=O)O)cc1)NC(=O)[C@H](CC(=O)O)NC(=O)COCCOCCNC(=O)COCCOCCNC(=O)CC[C@H](NC(=O)CCCCCCCCCCCCCCCCC(=O)O)C(=O)O)C(=O)NCC(=O)N[C@@H](Cc1c[nH]c2ccccc12)C(=O)N[C@@H](CCCCNC(=O)Nc1ccccc1C)C(=O)N(C)[C@@H](CC(=O)O)C(=O)N(C)[C@@H](Cc1ccccc1)C(N)=O ({C18 diacid-γGlu-AEEA-AEEA}-D[sY][Nle]GWK([CO-NH(2-Me-phenyl)])[NMeD][NMeF]-NH2): 0.479 nM

Would you kindly look at the next entry?
Qu. Return the recorded IC50 value; entry: CC(C)C[C@H](NC(=O)[C@H](Cc1ccc(OS(=O)(=O)O)cc1)NC(=O)[C@H](CC(=O)O)NC(=O)COCCOCCNC(=O)COCCOCCNC(=O)CC[C@H](NC(=O)CCCCCCCCCCCCCCCCC(=O)O)C(=O)O)C(=O)NCC(=O)N[C@@H](Cc1c[nH]c2ccccc12)C(=O)N[C@@H](C)C(=O)N(C)[C@H](CC(=O)O)C(=O)N(C)[C@@H](Cc1ccccc1)C(N)=O ({C18 diacid-γGlu-AEEA-AEEA}-D[sY]LGWA[dNMeD][NMeF]-NH2)
Ans. 0.617 nM
